Assay name: Cmax in healthy human at 600 mg, po twice daily coadministered with 300 mg, po Lamivudine once daily for 4 days
Assay type: ADME, organism-based
Set-up: dose 600 mg, route oral
Condition notes: in vivo
Measured metric: Cmax (ng/mL)
Lab book: enter the figure in ng/mL, no units written.

Value lookup for Cmax; key = Nc1ccn([C@H]2CO[C@@H](CO)S2)c(=O)n1
7110

----------
Assay name: AUC (0 to 24 hrs) in healthy human at 600 mg, po twice daily coadministered with 300 mg, po Lamivudine once daily for 4 days
Type: ADME, organism-based
Parameters: dose 600 mg, time < 24 hr, route oral
Condition notes: plasma
Measured metric: AUC at 24 h (ng·h/mL)
Lab book: enter the figure in ng·h/mL, no units written.

Value lookup for AUC at 24 h; key = Nc1ccn([C@H]2CO[C@@H](CO)S2)c(=O)n1
65600

----------
Assay name: Tmax in healthy human at 600 mg, po administered twice daily for 4 days
Type: ADME, organism-based
Condition notes: in vivo
Measured metric: Tmax (h)
Lab book: enter the figure in h, no units written.

Value lookup for Tmax; key = Nc1ccn([C@H]2CO[C@@H](CO)S2)c(=O)n1 [APRICITABINE]
1.76

----------
Assay name: Cmax in healthy human at 300 mg, po administered once daily for 4 days
Assay type: ADME, organism-based
Design: dose 300 mg, route oral
Condition notes: in vivo
Measured metric: Cmax (ng/mL)
Lab book: enter the figure in ng/mL, no units written.

Value lookup for Cmax; key = Nc1ccn([C@@H]2CS[C@H](CO)O2)c(=O)n1 [LAMIVUDINE]
3980

----------
Assay name: Renal clearance in healthy human at 600 mg, po administered twice daily for 4 days
Type: ADME, organism-based, Kidney
Condition notes: in vivo, read-out: CL_renal (converted)
Measured metric: CL renal at 96 h (mL/min)
Lab book: enter the figure in mL/min, no units written.

Value lookup for CL renal at 96 h; key = Nc1ccn([C@H]2CO[C@@H](CO)S2)c(=O)n1
192

----------
Assay name: AUC (0 to 24 hrs) in healthy human at 300 mg, po administered once daily for 4 days
Type: ADME, organism-based
Parameters: dose 300 mg, time < 24 hr, route oral
Condition notes: plasma
Measured metric: AUC at 24 h (ng·h/mL)
Lab book: enter the figure in ng·h/mL, no units written.

Value lookup for AUC at 24 h; key = Nc1ccn([C@@H]2CS[C@H](CO)O2)c(=O)n1 [LAMIVUDINE]
15700

----------
System: Homo sapiens
Assay name: AUC (0 to 12 hrs) in healthy human PBMC assessed as intracellular lamivudine triphosphate level per 10^6 cells at 300 mg, po administered once daily for 4 days
Condition notes: in vivo
Measured metric: AUC

Value lookup for AUC; key = Nc1ccn([C@@H]2CS[C@H](CO)O2)c(=O)n1
154 pmol·h/10^6 cells

----------
Assay name: Cmax in healthy human at 300 mg, po once daily coadministered with 600 mg, po apricitabine twice daily for 4 days
Assay type: ADME, organism-based
Design: dose 300 mg, route oral
Condition notes: in vivo
Measured metric: Cmax
Answers without a unit are incomplete; give the number and then its unit.

Value lookup for Cmax; key = Nc1ccn([C@@H]2CS[C@H](CO)O2)c(=O)n1
3810 ng/mL

----------
Test system: Homo sapiens
Assay name: AUC (0 to 12 hrs) in healthy human PBMC assessed as intracellular apricitabine triphosphate level per 10^6 cells at 600 mg, po twice daily coadministered with 300 mg, po Lamivudine once daily for 4 days
Format: ADME, organism-based
Design: time < 12 hr, dose 600 mg, route oral
Condition notes: in vivo
Measured metric: AUC (pmol·h/10^6 cells)
Lab book: enter the figure in pmol·h/10^6 cells, no units written.

Value lookup for AUC; key = Nc1ccn([C@H]2CO[C@@H](CO)S2)c(=O)n1 [APRICITABINE]
1.98

----------
Assay name: Tmax in healthy human at 600 mg, po twice daily coadministered with 300 mg, po Lamivudine once daily for 4 days
Assay type: ADME, organism-based
Condition notes: in vivo
Measured metric: Tmax (h)
Lab book: enter the figure in h, no units written.

Value lookup for Tmax; key = Nc1ccn([C@H]2CO[C@@H](CO)S2)c(=O)n1 [APRICITABINE]
1.55

----------
Assay name: Apparent terminal half life in healthy human at 600 mg, po administered twice daily for 4 days
Assay type: ADME, organism-based
Condition notes: in vivo
Measured metric: half-life

Value lookup for half-life; key = Nc1ccn([C@H]2CO[C@@H](CO)S2)c(=O)n1 [APRICITABINE]
2.72 h

----------
System: Homo sapiens
Assay name: Apparent total oral clearance in healthy human at 600 mg, po twice daily coadministered with 300 mg, po Lamivudine once daily for 4 days
Assay type: ADME, organism-based
Condition notes: in vivo, 96 h
Measured metric: CL/F (L/h)
Lab book: enter the figure in L/h, no units written.

GET /values?readout=CL/F&system=Homo sapiens&item= Nc1ccn([C@H]2CO[C@@H](CO)S2)c(=O)n1
18.3

----------
System: Homo sapiens
Assay name: Renal clearance in healthy human at 600 mg, po twice daily coadministered with 300 mg, po Lamivudine once daily for 4 days
Type: ADME, organism-based, Kidney
Condition notes: in vivo, 96 h
Measured metric: CL renal (L/h)
Lab book: enter the figure in L/h, no units written.

Value lookup for CL renal; key = Nc1ccn([C@H]2CO[C@@H](CO)S2)c(=O)n1
12.2

----------
Assay name: Apparent total oral clearance in healthy human at 600 mg, po administered twice daily for 4 days
Type: ADME, organism-based
Condition notes: in vivo
Measured metric: CL/F (mL/min)
Lab book: enter the figure in mL/min, no units written.

Value lookup for CL/F; key = Nc1ccn([C@H]2CO[C@@H](CO)S2)c(=O)n1
283
